Biological target: Tubulin beta chain (Bos taurus)
Sequence (Q6B856 whole entry): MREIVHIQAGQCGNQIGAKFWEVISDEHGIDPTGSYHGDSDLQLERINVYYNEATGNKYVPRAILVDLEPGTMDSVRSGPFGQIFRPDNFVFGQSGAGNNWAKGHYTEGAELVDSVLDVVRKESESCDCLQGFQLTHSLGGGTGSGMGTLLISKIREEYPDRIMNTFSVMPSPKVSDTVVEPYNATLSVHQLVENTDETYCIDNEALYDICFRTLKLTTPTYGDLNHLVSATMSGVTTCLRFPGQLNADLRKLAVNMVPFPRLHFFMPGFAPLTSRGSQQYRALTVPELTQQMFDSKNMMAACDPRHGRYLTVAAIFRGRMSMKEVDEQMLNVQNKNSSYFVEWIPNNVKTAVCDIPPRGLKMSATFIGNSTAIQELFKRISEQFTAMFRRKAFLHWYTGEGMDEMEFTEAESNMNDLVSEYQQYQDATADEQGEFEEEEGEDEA
Test: Compound was evaluated for in vitro inhibitory activity against polymerization of tubulin into microtubules isolated from bovine brain at 1 mg/mL tubulin concentration
Task for the reader: assign each of the following molecules its reported IC50.
Express it in µM; write the number only.

Specify IC50 for COc1cc(CCc2cccc(SC)c(=O)c2)cc(OC)c1OC and stop. 12

Specify IC50 for COc1cc(CCc2cccc(OC)c(=O)c2)cc(OC)c1OC and stop. 8.6

Specify IC50 for COc1ccc(-c2ccc(OC)c(=O)cc2)c(OC)c1OC and stop. 2.5

Hello, the source for this data is ChEMBL document CHEMBL1151998, in case you need it.
